B1: C22orf15 (parent)
chain: ITQSWQVSVRVQPRGRAHLLPNPY

# Variants of: B1
# Test Summary: protein stability index of a GFP-peptide fusion (GPS, HEK-293T) (PSI 1-6); higher = more stable;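 note: lentivirally expressed fusions sorted by FACS into six bins by GFP to DsRed ratio, PSI derived from sequencing read proportions per bin multiplied by bin number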
# Conditions Used: c terminus: a fixed tail appended
Label rule, in plain words: protein stability index of 2 and up is rule met, under 2 is rule not met.

Illustrative cases are given below, each with its answer.
Decide: is the reported value of protein stability index for `W5Y` equal to or greater than 2?
rule not met

Decide: is the reported value of protein stability index for `N22M` equal to or greater than 2?
rule not met

Decide: is the reported value of protein stability index for `H18I` equal to or greater than 2?
rule not met

Decide: is the reported value of protein stability index for `P23E` equal to or greater than 2?
rule not met

Decide: is the reported value of protein stability index for `G15R` equal to or greater than 2?
rule not met

Next:
Decide: is the reported value of protein stability index for `N22L` equal to or greater than 2?
rule met

Decide: is the reported value of protein stability index for `P13T` equal to or greater than 2?
rule not met

Decide: is the reported value of protein stability index for `V11T` equal to or greater than 2?
rule not met

Decide: is the reported value of protein stability index for `G15W` equal to or greater than 2?
rule met

Decide: is the reported value of protein stability index for `V7E` equal to or greater than 2?
rule met
